Catalogue of melting point readings, one per entry.
Structures can show the parent of a compound that is named as a salt.
MEASURE_NAME: melting point

COMPOUND	MEASURE_NAME	TEST_VALUE
COc1cc(/C=C/C(=O)c2ccc(OCCOc3ccc(C(=O)c4ccc(CN(C)Cc5ccccc5)cc4)cc3)cc2O)cc(OC)c1OC (as salt: HCl)	melting point	220 to 222 °C
CN(Cc1ccccc1)Cc1ccc(C(=O)c2ccc(OCCOc3ccc4c(c3)OC(c3cccc5ccccc35)CC4=O)cc2)cc1 (stereo not drawn) (as salt: HCl)	melting point	172 to 195 °C
CN(Cc1ccccc1)Cc1ccc(C(=O)c2ccc(OCCOc3ccc(C(=O)/C=C/c4cccc5ccccc45)c(O)c3)cc2)cc1 (as salt: HCl)	melting point	197 to 199 °C
COc1cc(C2CC(=O)c3ccc(OCCOc4ccc(C(=O)c5ccc(CN(C)Cc6ccccc6)cc5)cc4)cc3O2)cc(OC)c1OC (stereo not drawn) (as salt: HCl)	melting point	182 to 194 °C
CC(=O)c1ccc(OCCOc2ccc(C(=O)c3ccc(CN(C)Cc4ccccc4)cc3)cc2)cc1O (as salt: HCl)	melting point	264 to 268 °C
COc1cc(/C=C/C(=O)c2ccc(OCCO)cc2O)cc(OC)c1OC	melting point	186 to 188 °C

====

pIC50: −log10 of the molar value.
Quick record: pIC50, hBACE-1 (Homo sapiens).

STRUCTURE_AS_SMILES	pIC50
CN(Cc1ccccc1)Cc1ccc(C(=O)c2ccc(OCCOc3ccc(C(=O)/C=C/c4cccc5ccccc45)c(O)c3)cc2)cc1	5.40
COc1cc(/C=C/C(=O)c2ccc(OCCOc3ccc(C(=O)c4ccc(CN(C)Cc5ccccc5)cc4)cc3)cc2O)cc(OC)c1OC	5.97
